System: SF-295 CNS
ASSAY SUMMARY: NCI-60 one-dose screen, 48 h
EXPERIMENTAL SETUP: 10 µM unless noted
The panel holds about 83,000 compounds, 20% with a hit somewhere; the sample as a whole holds those more often. Active and inactive are the calls of the source. The calls were made as follows: active = growth percent below 10; inactive = the rest.
// classify into 1.0 for active, 0.0 for inactive

Outcome logged for Cc1cc(NS(=O)(=O)c2ccccc2)c(OS(=O)(=O)c2ccccc2)cc1C in this assay:
0.0

Which result was noted for this compound in the test: Cc1nn(Cc2ccccc2)cc1C(=O)Nc1sc2c(c1C(N)=O)CCC(=O)C2
0.0

What did the test return for O[C@H]1CO[C@H]2[C@@H]1OC[C@@H]2Oc1ccc(Nc2ccnc(Nc3ccc(O[C@H]4CO[C@H]5[C@@H]4OC[C@@H]5O)c(Cl)c3)n2)cc1Cl ?
1.0

Recorded test outcome, item c1ccc([P+](CCCc2n(Cc3ccc4ccccc4c3)c3ccccc3[n+]2Cc2ccc3ccccc3c2)(c2ccccc2)c2ccccc2)cc1
0.0

Please let me know the test result on file for Cc1nc(Nc2ccccn2)sc1C(=O)/C=C/c1ccc(Br)cc1 .
0.0

Could you kindly confirm the outcome this assay logged for COc1cc(/C=C2\C=C(c3ccccc3)N(CCc3ccccc3)C2=O)cc(OC)c1OC ?
0.0

Could you kindly confirm the outcome this assay logged for COc1ccc(OC)c(C(=O)Nc2cccc(-c3cc(=O)c4ccccc4o3)c2)c1 ?
0.0
